// data source = ChEMBL document CHEMBL1201862

studySystem: Nucleotide-binding oligomerization domain-containing protein 2 (Homo sapiens)
Sequence (Q9HC29 whole entry, the tested form may be a part): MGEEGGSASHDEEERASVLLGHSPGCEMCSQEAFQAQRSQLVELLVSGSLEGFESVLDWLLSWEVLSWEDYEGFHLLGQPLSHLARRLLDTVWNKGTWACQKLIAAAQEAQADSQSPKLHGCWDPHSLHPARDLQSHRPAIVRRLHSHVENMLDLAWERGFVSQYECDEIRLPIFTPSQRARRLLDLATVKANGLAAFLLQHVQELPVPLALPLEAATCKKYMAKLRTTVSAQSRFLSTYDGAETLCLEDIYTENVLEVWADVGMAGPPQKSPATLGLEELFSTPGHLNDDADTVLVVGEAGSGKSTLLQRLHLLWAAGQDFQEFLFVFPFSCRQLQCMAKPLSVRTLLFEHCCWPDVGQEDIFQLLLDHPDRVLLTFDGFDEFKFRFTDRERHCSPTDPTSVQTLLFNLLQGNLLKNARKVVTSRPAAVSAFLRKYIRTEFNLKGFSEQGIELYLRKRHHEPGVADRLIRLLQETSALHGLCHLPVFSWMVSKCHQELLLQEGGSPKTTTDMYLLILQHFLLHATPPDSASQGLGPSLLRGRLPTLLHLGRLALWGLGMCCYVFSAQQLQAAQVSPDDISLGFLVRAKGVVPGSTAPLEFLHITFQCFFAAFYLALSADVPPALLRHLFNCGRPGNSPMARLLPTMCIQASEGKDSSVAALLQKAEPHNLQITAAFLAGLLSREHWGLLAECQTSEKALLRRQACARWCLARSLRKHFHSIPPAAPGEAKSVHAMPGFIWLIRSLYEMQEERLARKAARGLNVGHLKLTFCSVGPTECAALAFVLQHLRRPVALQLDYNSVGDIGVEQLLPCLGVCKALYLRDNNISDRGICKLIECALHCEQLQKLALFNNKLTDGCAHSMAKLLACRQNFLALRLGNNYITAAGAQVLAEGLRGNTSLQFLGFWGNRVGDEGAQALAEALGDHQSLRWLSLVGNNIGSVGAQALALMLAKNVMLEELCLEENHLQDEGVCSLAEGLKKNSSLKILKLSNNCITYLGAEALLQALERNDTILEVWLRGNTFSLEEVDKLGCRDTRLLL
assayDetails: NOD2 signaling inhibitors, cell-based, luminescence, uHTS, HEK293 (AID 1566)
Type: functional
The source made the active and inactive calls.
Pick one: TRUE for active, FALSE for inactive

# outcome recorded in this test, key = "Cc1ccc(NC(=O)c2cc(=O)c3ccccc3o2)cc1S(=O)(=O)N1CCCCC1"
FALSE

# outcome recorded in this test, key = "COc1ccc(/C=C2\SC(=S)N(CCCC(=O)NNC(=O)c3ccccc3O)C2=O)cc1"
FALSE

# outcome recorded in this test, key = "O=C1S/C(=C\c2ccc(O)c([N+](=O)[O-])c2)C(=O)N1Cc1cccc([N+](=O)[O-])c1"
TRUE

# outcome recorded in this test, key = "COc1ccc(C)cc1NC(=O)c1sc2ncnc(N3CCN(c4ccccn4)CC3)c2c1C"
FALSE

###

studySystem: Prothrombin (Homo sapiens, UniProt P00734)
assayDetails: Thrombin 1536 HTS Dose Response Confirmation. [Related pubchem assays: 1046 (Thrombin 1536 HTS; hits were confirmed in this assay)]
Format: functional
Active and inactive are the calls of the source.
Would you mind telling me the reported IC50 of each entry?

Note to self: IC50 recorded for "CCN1C(=O)/C(=C/N(C(C)=O)c2ccccc2)N(c2ccccc2)C1=S" was > 50 µM (not active)

Note to self: IC50 recorded for "Cc1cc2ncn(C(=O)c3ccc4c(c3)OCO4)c2cc1C" was 5.76 µM (active)

Note to self: IC50 recorded for CC1=C(C(=O)Nc2ccccc2)C(c2ccc(O)cc2)N2C(=O)CSC2=N1 (stereo unspecified) was 25.2 µM (active)

Note to self: IC50 recorded for "CCN1CCN(CC(=O)c2cc(OC)c(OC)c(OC)c2)CC1" was > 50 µM (not active)

Note to self: IC50 recorded for "O=C(c1ccccc1)n1nnc2ccccc21" was 0.431 µM (active)

Note to self: IC50 recorded for "CN(C)CCCNc1ncnc2sc(-c3ccccc3)cc12" was > 50 µM (not active)

###

Would you mind telling me the reported IC50 of each entry?
studySystem: 26S proteasome non-ATPase regulatory subunit 14 (Homo sapiens)
Sequence (O00487 whole entry): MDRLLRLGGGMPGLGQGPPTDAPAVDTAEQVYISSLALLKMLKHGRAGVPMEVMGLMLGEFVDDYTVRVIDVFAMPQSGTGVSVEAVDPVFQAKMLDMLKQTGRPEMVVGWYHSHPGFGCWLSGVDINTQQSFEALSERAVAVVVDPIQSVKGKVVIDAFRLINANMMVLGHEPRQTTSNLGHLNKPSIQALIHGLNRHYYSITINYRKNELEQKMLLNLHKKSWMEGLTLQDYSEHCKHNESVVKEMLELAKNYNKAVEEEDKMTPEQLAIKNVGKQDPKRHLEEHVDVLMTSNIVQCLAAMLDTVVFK
assayDetails: inhibition of proteasome subunit RPN11 – biochemical, fluorescence polarization, uHTS hits, confirmation (AID 602368)
Assay type: functional
Active and inactive are the calls of the source.

Note to self: IC50 recorded for "Nc1nc(SCc2ccc(Cl)cc2Cl)nc2nc3c(cc12)CCCC3" was 41.4 µM (active)

Note to self: IC50 recorded for "O=C(O)c1ccc(NC(=S)NC(=O)c2ccc(-c3ccc(Br)cc3)o2)cc1" was 15.2 µM (active)

Note to self: IC50 recorded for CC(NC(=O)C1CCN(C(=O)c2cccs2)CC1)c1ccc(S(N)(=O)=O)cc1 (stereo not given) was 9.98 µM (active)

Note to self: IC50 recorded for "O=C(NN=Cc1ccc(N(CCCl)CCCl)cc1)C(=O)c1c[nH]c2ccccc12" was 25.5 µM (active)

Note to self: IC50 recorded for "Cc1csc(NC(=O)CSc2nc3sc(C)c(C)c3c(=O)[nH]2)n1" was 24.3 µM (active)

###

Calls of active or inactive are those of the source.
Would you mind telling me the reported IC50 of each entry?

IC50 for Glyceraldehyde-3-phosphate dehydrogenase (Homo sapiens, UniProt P04406) with input "O=C1C(Cl)=C(Cl)C(=O)N1c1ccc(Cl)cc1Cl" equals > 100 µM (not active)

IC50 for Glyceraldehyde-3-phosphate dehydrogenase (Homo sapiens, UniProt P04406) with input "C[C@@H](C(N)=O)n1c(=O)n(Cc2ccccc2)c(=O)n(-c2ccccc2)c1=O" equals > 100 µM (not active)

IC50 for Glyceraldehyde-3-phosphate dehydrogenase (Homo sapiens, UniProt P04406) with input "C=CCc1cccc2cc(C(=O)Nc3cccc(C(=O)O)c3)c(=O)oc12" equals > 100 µM (not active)

IC50 for Glyceraldehyde-3-phosphate dehydrogenase (Homo sapiens, UniProt P04406) with input "COC(=O)c1cc(-c2ccc(Br)cc2)n[nH]1" equals > 100 µM (not active)

IC50 for Glyceraldehyde-3-phosphate dehydrogenase (Homo sapiens, UniProt P04406) with input "CCOC(=O)CS(=O)(=O)c1nc(-c2ccccc2)cc(C(F)(F)F)n1" equals > 100 µM (not active)

IC50 for Glyceraldehyde-3-phosphate dehydrogenase (Homo sapiens, UniProt P04406) with input "O=C1C(Cl)=C(N2CCN(Cc3ccc4c(c3)OCO4)CC2)C(=O)N1c1ccc(C(F)(F)F)cc1" equals > 50 µM (inconclusive)

IC50 for Glyceraldehyde-3-phosphate dehydrogenase (Homo sapiens, UniProt P04406) with input O=C(O)C1Nc2ccc(Br)cc2C2C=CCC12 (configuration not stated) equals 28.7 µM (active)
